src = PubChem BioAssay (NCI)

test system: CCRF-CEM leukemia; assay: NCI tumour cell line growth inhibition, 48 h
Below: a set of entries, each annotated with reported TGI.

Need TGI of CC(C)C1=C(O)C2=C(C(=O)C1=O)C1(C)CCCC(C)(C)C1C(O)C2OC=O (stereo not given) , thanks. 8.47 µM

Could you share which TGI value was measured for Cc1ccc(C)c(N2C(=O)C(=O)C(c3nc4ccccc4s3)C(=Nc3cccc4c(=O)[nH][nH]c(=O)c34)C2=O)c1 (stereo not given) ? > 100 µM

For the molecule shown here, Cc1cccc(N=Nc2ccc(N=Nc3c(O)ccc4ccccc34)cc2C)c1 , give the reported TGI. > 100 µM

Could you tell me which TGI is on file for O=S1SC(=S)C2C=CC=CC21 (stereo not given) ? 39 µM

Look at this molecule and give its reported TGI. O=C(/C=C/c1ccc2c(c1)OCO2)Cc1nc2ccccc2[nH]c1=O > 100 µM

Consider the molecule shown here: CC(=O)[CH-]C(=O)c1ccccc1.CC(=O)[CH-]C(=O)c1ccccc1.CC1(C)OCC(C2OC3OC(C)(C)OC3C2[O-])O1.CC[O-].[Ti+4] (stereo not given) What is its recorded TGI? > 100 µM

Could you share which TGI value was measured for Cc1ccc2oc(=O)c(-c3ccccc3)nc2c1 ? > 100 µM

// lookup TGI for C/C(=N\Nc1nc2ccccc2s1)c1ccc2ccccc2n1 63.7 µM

State the recorded TGI for this entry: CCCCCCCCCCCCCC[n+]1cccc(C(N)=O)c1 4.47 µM

Which TGI is reported for this molecule? N.N.N.N.N.O=S(=O)([O-])S(=O)(=O)[O-].[Co+3] > 100 µM

---

test system: SK-MEL-5 melanoma; assay: NCI tumour cell line growth inhibition, 48 h
Value Type: TGI

# count of solved cases: 5
* Cc1ccc(NC(=O)/C(Cc2nc3ccc([N+](=O)[O-])cc3[nH]c2=O)=N\NC(=O)C[n+]2ccccc2)c(C)c1 | 55.4 µM
* C[C@]12C/C(=C/O)C(=O)C(O)=C1CC[C@@H]1C2CC[C@@]2(C)C1CC[C@@H]2O (stereo partly specified) | 42.9 µM
* O=C(NCCN1CCNCC1)c1ccc(Nc2nc3ccccc3c3occc23)cc1 | 13.7 µM
* COC(=O)C1(O)C(c2ccccc2)=NC2(C)CCCC21 (stereo unspecified) | > 100 µM
* COc1cccc2c1OCC1Cc3ccccc3OC21 (stereo unspecified) | 30.8 µM

Now for another entry.
For SK-MEL-5 melanoma, provide TGI of O=C1/C(=C/c2ccc([N+](=O)[O-])cc2)COc2ccc(O)cc21 please. 53.6 µM

---

test system: SK-OV-3 ovarian; experiment: NCI tumour cell line growth inhibition, 48 h
Value Type: TGI

Short answer please: TGI, SK-OV-3 ovarian, entry CCCCCCCCCCCC1CC(=O)NCCCN(C)CCCCN(C)CCCN1C (stereo not drawn) 3.2 µM

Under SK-OV-3 ovarian: TGI value of Cc1cc2c(cc1Cl)S/C(=C/C(=O)O)C(Nc1cccc3nsnc13)=NS2(=O)=O ? > 62.5 µM

For the record COc1cc2[nH]c(-c3ccccc3)cc(=O)c2c(OC)c1OC , what value of TGI is listed for SK-OV-3 ovarian? > 100 µM

Could you share what TGI was measured for CC1=NNC(=O)C1C1CC(c2c[nH]c3ccccc23)=NN=C1Cl (stereo not drawn) , tested on SK-OV-3 ovarian? > 100 µM

Request - read-out TGI | tested on SK-OV-3 ovarian | molecule COc1ccc(C2=C(N3CCc4ccccc43)C(=O)NC2=O)cc1 > 25 µM

// lookup TGI | system=SK-OV-3 ovarian | key= OCc1ccc(N2CCOCC2)cc1Cl > 100 µM

# get_value(readout= TGI, system= SK-OV-3 ovarian) for COc1cccc2c1OCC1Cc3ccccc3OC21 (stereo not drawn) > 100 µM

Please tell me: TGI of N#C/C(=C1\SC(N=Nc2ccc(Cl)cc2)C(=O)N1c1ccccc1)c1nc2ccccc2[nH]1 (stereo not drawn) , system SK-OV-3 ovarian? 35.6 µM

Checklist item: TGI tested on SK-OV-3 ovarian, entry Cc1cccc(C)c1N1C(=O)C(=O)C(c2nc3ccccc3s2)/C(=N/NC(=O)NN)C1=O (stereo not drawn) , value? > 100 µM

Record O=C(Cl)C1=C(c2ccccc2)C1c1ccccc1 (stereo not drawn) : what is its TGI with SK-OV-3 ovarian? > 100 µM

# returns recorded TGI (system: SK-OV-3 ovarian) for Fc1ccc2nc(-c3cc(-c4ccc5c(c4)OCO5)n[nH]3)[nH]c2c1 26.5 µM

Look up TGI with SK-OV-3 ovarian for this molecule: O=C1C2=C(CCC2)Nc2cccc3ncn1c23 > 100 µM

Please state recorded TGI (tested on SK-OV-3 ovarian) of Cc1ccccc1/C=C/C(=O)c1ccccc1 67.3 µM

---

system: SK-MEL-28 melanoma; assay: NCI tumour cell line growth inhibition, 48 h
TGI of 7 µM or higher: fulfilled. Under 7 µM: not fulfilled.

State whether the measured TGI reaches 7 µM, counting equality as reaching it, for COc1cccc(COc2cc(-n3cnc4ccccc43)sc2C(N)=O)c1 fulfilled

Threshold query (TGI >= 7 µM) on CCOC(=O)c1ccc(Nc2nc3ccc(C(F)(F)F)cc3nc2C(=O)OCC)cc1 fulfilled

Hi, just wondering whether COc1nc2c(N3CCCC3)nc(N3CCNCC3)nc2nc1NCc1ccccc1 shows TGI of 7 µM or higher. not fulfilled

---

tested on: HCC-2998 colon; experiment: NCI tumour cell line growth inhibition, 48 h
Value Type: TGI

- Nc1ccc(-c2nn3c(COc4ccc(Cl)cc4)nnc3s2)cc1: > 100 µM
- Fc1ccc2nc(-c3cc(-c4ccc5c(c4)OCO5)n[nH]3)[nH]c2c1: > 72.8 µM
- O=C1OC(c2ccccc2)N(C(=O)c2ccccc2)C1Cc1ccc(OCc2ccccc2)cc1 (stereo not given): > 100 µM
- CN(C)C(=S)Nc1nnc(Nc2ccccc2)s1: > 100 µM
- CCOC(=O)NC(Nc1c(F)c(F)c(F)c(F)c1F)(C(F)(F)F)C(F)(F)F: > 100 µM
- O=c1[nH]c2cc([N+](=O)[O-])ccc2nc1/C(=N\Nc1ccccc1)C(O)c1ccc2c(c1)OCO2 (stereo not given): > 100 µM
- O=C1/C(=C/c2ccc([N+](=O)[O-])cc2)COc2ccc(O)cc21: 3.21 µM
- COc1ccc(OC)c2sc(N3C(=O)/C(=C/c4cccc([N+](=O)[O-])c4)N=C3c3ccccc3)nc12: > 100 µM

Query (compound): C=C1C2Oc3ccccc3C1N(c1ccccc1)O2 (stereo not given) ; field requested: TGI > 100 µM

Reported TGI, compound O=[N+]([O-])/C(Cl)=C(\NCCN/C(C(Cl)=C(Cl)Cl)=C(/Cl)[N+](=O)[O-])C(Cl)=C(Cl)Cl : ____ > 100 µM

---

tested on: HL-60(TB) leukemia; assay: NCI tumour cell line growth inhibition, 48 h
Measured TGI accompanies every entry in the list below.
Entry rule: numbers only, all in µM.

* CCOC(OC1=C(C#N)CCCC1)C(CC)[Se]c1ccccc1 (stereo not given) | 42.9
* N#Cc1c(-c2ccccc2)c2c([nH]c1=O)-c1cc([N+](=O)[O-])ccc1CCC2 | 72.3
* CC(=O)Oc1c(C)c(C)c2c(c1C)CCC(C)(CC(=O)OCCCCCCCCCCC[P+](c1ccccc1)(c1ccccc1)c1ccccc1)O2 (stereo not given) | 0.926

Which value of TGI has been reported for Clc1ccc(/C(=C\c2ccccc2)Cn2ccnc2)cc1 in the records? 45.5

Query (compound): COc1ccc(Oc2cnn(C(Br)(Br)C(C)=O)c(=O)c2Br)cc1 ; field requested: TGI 10.9

Please report the recorded TGI for CC(C)C1=C(O)C2=C(C(=O)C1=O)C1(C)CCCC(C)(C)C1C(O)C2OC=O (stereo not given) . 18.7

---

system: CCRF-CEM leukemia; experiment: NCI tumour cell line growth inhibition, 48 h
Value Type: GI50

* O=C(c1cccs1)C1NO[N+]([O-])=C1c1cccs1 (stereo not given) | 1.23 µM
* COc1cccc2c(=O)c3c(sc12)c(NCCCNCCO)nc1ccccc13 | 1.53 µM
* Clc1ccc2c(c1)N(c1ncnc3ccc(-c4cnc5[nH]ncc5c4)cc13)CC2 | 0.547 µM
* COc1cc2nc(-c3ccc(C(F)(F)F)cc3)cc(OCCCN3CCCC3)c2cc1OC | 1.08 µM
* O=[N+]([O-])c1ccc(-c2cc3c(Nc4ccc(Cl)c(C(F)(F)F)c4)ncnc3s2)cc1 | 1.29 µM

Reported GI50 for CCRF-CEM leukemia, given CCn1c(-c2nonc2N)nc2ccncc21 ? > 25 µM

Lookup: GI50 / CCRF-CEM leukemia / Fc1ccc2nc(-c3cc(-c4ccc5c(c4)OCO5)n[nH]3)[nH]c2c1 2.62 µM

---

test system: SR leukemia; experiment: NCI tumour cell line growth inhibition, 48 h; in the data active means GI50 below about 0.43 µM; inactive means the rest
# valid calls are active, inactive; nothing else

Solved entries:
* COc1ccc(Nc2nccc(N3CCN(c4c5ccc(Cl)cc5nc5ccc(OC)cc45)CC3)n2)cc1 | inactive
* CCN(CC)c1ccc(/C=C/C2=[N+](C)c3ccccc3C2(C)C)c(C)c1 | active
* CCCCCCCCCCCCCC[n+]1cccc(C(N)=O)c1 | inactive

Now consider the entry below.
Test call for this compound, please: CC1c2ccccc2N=C2SC(=S)N3CCN=C3N21 (centres undefined) inactive
